Measured pKi on UniProt:P20272 follows.
Sequence (P20272 whole entry): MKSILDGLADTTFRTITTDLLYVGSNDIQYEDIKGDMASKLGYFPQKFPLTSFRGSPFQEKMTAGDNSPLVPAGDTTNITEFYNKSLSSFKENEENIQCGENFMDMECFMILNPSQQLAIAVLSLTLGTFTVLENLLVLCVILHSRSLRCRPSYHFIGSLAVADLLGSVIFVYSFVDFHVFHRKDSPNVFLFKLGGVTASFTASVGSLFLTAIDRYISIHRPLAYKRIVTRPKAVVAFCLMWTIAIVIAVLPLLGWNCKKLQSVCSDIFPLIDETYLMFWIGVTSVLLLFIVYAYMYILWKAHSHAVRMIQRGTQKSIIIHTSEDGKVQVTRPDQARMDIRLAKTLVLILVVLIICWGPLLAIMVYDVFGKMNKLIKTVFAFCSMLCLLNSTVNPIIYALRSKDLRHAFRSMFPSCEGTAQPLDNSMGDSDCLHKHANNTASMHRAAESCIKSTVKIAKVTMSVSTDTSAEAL
On this scale, pKi is minus log10 of a concentration expressed in M (mol/L).

CC1=CC[C@@H]2[C@@H](C1)c1c(O)cc(C(C)(C)C(=O)OCCCCCBr)cc1OC2(C)C | 8.92
CC1=CC[C@@H]2[C@@H](C1)c1c(O)cc(C(C)(C)C(=O)OCCBr)cc1OC2(C)C | 8.11
CCCCC(=O)OCC(C)(C)c1cc(O)c2c(c1)OC(C)(C)[C@@H]1CC=C(C)C[C@@H]21 | 9.30

Returns the measured pKi for the input molecule. Input: CCCSC(=O)C(C)(C)c1cc(O)c2c(c1)OC(C)(C)[C@@H]1CC=C(C)C[C@@H]21
9.30

For CC1=CC[C@@H]2[C@@H](C1)c1c(O)cc(C(C)(C)C(=O)OCCCCBr)cc1OC2(C)C , what is its reported pKi?
8.92
